Recorded values, source patent US9862726B2.

- subject-of-test: μ-opioid receptor (Homo sapiens (Human))
- assay-method-text: μ-opioid receptor functional assay (U-2 OS cells)
- Format: biochemical
- cond: U-2 OS cells; relative to DAMGO
Binary classification by Emax, with 80% as an inclusive lower bound for TRUE; all other cases are FALSE.

Request: Does Emax meet or surpass 80% for `COc1ccc2c(c1)[C@]13CCN(CC4CC4)[C@H](C2)[C@]12CC[C@@](Nc1ccc(C(C)(C)C)cc1)(CO2)C3` ?
Response: FALSE

Request: Does Emax meet or surpass 80% for `O=C1O[C@@]23CC[C@]1(O)C[C@@]21CCN(CC2CC2)[C@@H]3Cc2ccc(O)cc21` ?
Response: FALSE

Request: Does Emax meet or surpass 80% for `COc1ccc2c(c1)[C@]13CCN(CC4CC4)[C@H](C2)[C@]12CC[C@@](NC(=O)C1CC1)(CO2)C3` ?
Response: TRUE

Request: Does Emax meet or surpass 80% for `COc1ccc2c(c1)[C@]13CCN(CC4CC4)[C@H](C2)[C@]12CC[C@@](NC(=O)c1ccc(Cl)cc1)(CO2)C3` ?
Response: TRUE

Request: Does Emax meet or surpass 80% for `N[C@]12CC[C@@]3(OC1)[C@H]1Cc4ccc(O)cc4[C@@]3(CCN1CC1CC1)C2` ?
Response: FALSE

Request: Does Emax meet or surpass 80% for `COc1ccc2c(c1)[C@]13CCN(CC4CC4)[C@H](C2)[C@]12CC[C@@](NCC1CCCCC1)(CO2)C3` ?
Response: TRUE

###

- subject-of-test: UniProt P41145
- assay-method-text: κ-opioid receptor functional assay (U-2 OS cells)
- Format: biochemical
endpoint: pEC50
Keep in mind that pEC50 stands for -log10 of concentration in molar terms.

Request: Recorded pEC50 for `COc1ccc2c(c1)[C@]13CCN(CC4CC4)[C@H](C2)[C@]12CC[C@@](NC(=O)C(C)(C)C)(CO2)C3` , please?
Response: 8.95

Request: Recorded pEC50 for `COc1ccc2c(c1)[C@]13CCN(CC4CC4)[C@H](C2)[C@]12CC[C@@](NCc1ccccc1)(CO2)C3` , please?
Response: 9.64

Request: Recorded pEC50 for `COc1ccc2c(c1)[C@]13CCN(CC4CC4)[C@H](C2)[C@]12CC[C@@](N(C)C)(CO2)C3` , please?
Response: 6.88

###

For each entry below, report its pEC50 value.
- subject-of-test: κ-opioid receptor (Homo sapiens (Human))
- assay-method-text: κ-opioid receptor functional assay (U-2 OS cells)
- Assay type: biochemical
- Description: Functional [^35S]GTPγS binding assays were conducted as follows. κ opioid receptor membrane solution was prepared by sequentially adding final concentrations of 0.026 μg/μl κ membrane protein (in-house), 10 μg/mL saponin, 3 μM GDP and 0.20 nM [^35S]GTPγS to binding buffer (100 mM NaCl, 10 mM MgCl2, 20 mM HEPES, pH 7.4) on ice. […] Fifty μl/well scintillation cocktail (Perkin Elmer, Shelton, Conn.) was added and plates were counted in a Packard Top-Count for 1 min/well. […]
Keep in mind that pEC50 stands for -log10 of concentration in molar terms.

Request: # returns recorded pEC50 (system: κ-opioid receptor (Homo sapiens (Human))) for O=C1O[C@@]23CC[C@]1(O)C[C@@]21CCN(CC2CC2)[C@@H]3Cc2ccc(O)cc21 [Compound 9]
Response: 8.28

Request: # returns recorded pEC50 (system: κ-opioid receptor (Homo sapiens (Human))) for CC(C)(C)C(=O)N[C@]12CC[C@@]3(OC1)[C@H]1Cc4ccc(O)cc4[C@@]3(CCN1CC1CC1)C2 [Compound 26]
Response: 10.51

Request: # returns recorded pEC50 (system: κ-opioid receptor (Homo sapiens (Human))) for COc1ccc2c(c1)[C@]13CCN(CC4CC4)[C@H](C2)[C@]12CC[C@@](Nc1ccc(C(C)(C)C)cc1)(CO2)C3 [Compound 29]
Response: 8.51

Request: # returns recorded pEC50 (system: κ-opioid receptor (Homo sapiens (Human))) for COc1ccc2c(c1)[C@]13CCN(CC4CC4)[C@H](C2)[C@]12CC[C@@](N1CCOCC1)(CO2)C3 [Compound 31]
Response: 7.52

Request: # returns recorded pEC50 (system: κ-opioid receptor (Homo sapiens (Human))) for COc1ccc2c(c1)[C@]13CCN(CC4CC4)[C@H](C2)[C@]12CC[C@](O)(C3)C(=O)O2 [Compound 4]
Response: 5.96

Request: # returns recorded pEC50 (system: κ-opioid receptor (Homo sapiens (Human))) for COc1ccc2c(c1)[C@]13CCN(CC4CC4)[C@H](C2)[C@]12CC[C@@](N1CCCC1)(CO2)C3 [Compound 32]
Response: 7.58

Request: # returns recorded pEC50 (system: κ-opioid receptor (Homo sapiens (Human))) for COc1ccc2c(c1)[C@]13CCN(CC4CC4)[C@H](C2)[C@]12CC[C@@](NC(=O)C1CC1)(CO2)C3 [Compound 22]
Response: 9.05
